These data points were gathered from the supplement of paper PMC10567573.

B1: ZNF263 (parent)
chain: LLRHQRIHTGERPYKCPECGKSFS

- Variants of: B1
- experiment: protein stability index of a GFP-peptide fusion (GPS, HEK-293T) (PSI 1-6); higher = more stable;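 further: lentivirally expressed fusions sorted by FACS into six bins by GFP to DsRed ratio, PSI derived from sequencing read proportions per bin multiplied by bin number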
- assayConditions: c terminus: a fixed tail appended
Classification field: enter fulfilled for protein stability index values not below 2, not fulfilled for values below it.

[[record]]
variantdescription = "Q5W"
assignedlabel = "not fulfilled"

[[record]]
variantdescription = "R6F"
assignedlabel = "not fulfilled"

[[record]]
variantdescription = "H4S"
assignedlabel = "fulfilled"

[[record]]
variantdescription = "E18L"
assignedlabel = "fulfilled"

[[record]]
variantdescription = "R12H"
assignedlabel = "fulfilled"

[[record]]
variantdescription = "R3N"
assignedlabel = "fulfilled"

[[record]]
variantdescription = "F23N"
assignedlabel = "fulfilled"

[[record]]
variantdescription = "P17R"
assignedlabel = "fulfilled"

[[record]]
variantdescription = "T9S"
assignedlabel = "not fulfilled"

[[record]]
variantdescription = "C16Y"
assignedlabel = "fulfilled"

[[record]]
variantdescription = "E18P"
assignedlabel = "fulfilled"

[[record]]
variantdescription = "E11P"
assignedlabel = "fulfilled"

[[record]]
variantdescription = "E11Y"
assignedlabel = "not fulfilled"

[[record]]
variantdescription = "Q5S"
assignedlabel = "fulfilled"

[[record]]
variantdescription = "Y14A"
assignedlabel = "fulfilled"

[[record]]
variantdescription = "R3V"
assignedlabel = "fulfilled"

[[record]]
variantdescription = "S22F"
assignedlabel = "fulfilled"

[[record]]
variantdescription = "T9M"
assignedlabel = "fulfilled"

[[record]]
variantdescription = "E11F"
assignedlabel = "not fulfilled"

[[record]]
variantdescription = "I7A"
assignedlabel = "fulfilled"

